- System: Saccharomyces cerevisiae
- assay-method-text: protein stability index of tFT-peptide fusion (C-terminal peptide) (PSI (0-1 scale)); higher = more stable (slower turnover);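 also: PSI is a weighted mean of sequencing reads over stability bins, variants kept only with over 10 reads, mCherry proximal and sfGFP distal, peptide attached via GGGS linker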
- experimental-setup: genetic background: wild type; temperature: 30 C
observable: protein stability index
Quick one: just the number, no unit, thanks!

FLWAVSLCRSLV | 0.218

Exercise: Quick one: protein stability index of VCVARICIWDFL ?
Key: 0.438

Exercise: Continue with SWSLRLSTIFSV
Key: 0.219

Exercise: Continue with LFSFFVFFFLLD
Key: 0.37

Exercise: Continue with VGGGGRFWVCVG
Key: 0.237

###

Each entry below carries its recorded protein stability index.
- System: Saccharomyces cerevisiae
- assay-method-text: protein stability index of tFT-peptide fusion (C-terminal peptide) (PSI (0-1 scale)); higher = more stable (slower turnover)
- experimental-setup: genetic background: wild type; temperature: 30 C
Quick one: just the number, no unit, thanks!

Worked cases, protein stability index given:
VLLFGLAFFFSF | 0.371
PPEPRPLPDAPP | 0.598
FVGWGLGVGTHD | 0.679
PPQDQAPVGVND | 0.474
DLSCVPSVNLGM | 0.682
ARIALGLSALVL | 0.641
PASDPPHRDPPH | 0.658
CAPTFSYSLVLS | 0.514
ASSLSPSTFFCL | 0.642
APPPPPPPCAPS | 0.657

Exercise: Find protein stability index (Saccharomyces cerevisiae) for the entry PLVLPPSPASPF
Key: 0.694

Exercise: Continue with IKLVVLGPLVWF
Key: 0.625

Exercise: Continue with SWYQPSLREYAQ
Key: 0.743

Exercise: Continue with HGWACSRSPCAV
Key: 0.756

Exercise: Continue with GGRVAGSMGVGG
Key: 0.68

Exercise: Continue with LPPLLPPFHPPR
Key: 0.701

Exercise: Continue with VEHHSKQIEKGR
Key: 0.681

Exercise: Continue with PPSPPPPPASPP
Key: 0.68

Exercise: Continue with LRAHHHSAKFQY
Key: 0.661

Exercise: Continue with VVWKRALWGEGL
Key: 0.791

meta.source: the supplement of paper PMC10724198
